Tested on: 922993-354-T-J3-PDC complex spheroids, viability
PROTOCOL_SUMMARY: Anticancer human tumor 922993-354-T-J3-PDC patient-derived endometrial carcinoma cell line growth inhibition [GQUAD]
ASSAY_SETUP: second compound 0.0316 µM; first compound 10 µM; stronger effect = lower value
viability, T/C for assorted molecules
Give the number; % is assumed, so skip it.

A selection of reference data follows.
• CC(C)(O)C1CCC(Nc2ccc3ncc(-c4cccc(C(F)(F)F)c4)n3n2)CC1 (stereo not given) + Cc1cnc(CNC(=O)c2c(=O)c3ccc(N4CCCN(C)CC4)nc3n3c2sc2ccccc23)cn1 = 84.1
• C=CC(=O)N1CCN(c2nc(=O)n(-c3c(C)ccnc3C(C)C)c3nc(-c4c(O)cccc4F)c(F)cc23)C(C)C1 (stereo not given) + Cc1cnc(CNC(=O)c2c(=O)c3ccc(N4CCCN(C)CC4)nc3n3c2sc2ccccc23)cn1 = 100
• COc1cc(C2c3cc4c(cc3C(OC3OC5COC(C)OC5C(O)C3O)C3COC(=O)C23)OCO4)cc(OC)c1O (stereo not given) + Cc1cnc(CNC(=O)c2c(=O)c3ccc(N4CCCN(C)CC4)nc3n3c2sc2ccccc23)cn1 = 49.9
• Nc1ccn(C2OC(CO)C(O)C2(F)F)c(=O)n1 (stereo not given) + CN(C)c1ccc(Nc2c3ccc(NC(=O)CCN4CCCC4)cc3nc3cc(NC(=O)CCN4CCCC4)ccc23)cc1 = 12.7

Form field viability, T/C for item CC1COCCN1c1cc(-c2ccnn2C)c2ccnc(-c3ccn[nH]3)c2n1 (stereo not given) + Cc1cnc(CNC(=O)c2c(=O)c3ccc(N4CCCN(C)CC4)nc3n3c2sc2ccccc23)cn1 on 922993-354-T-J3-PDC complex spheroids, viability: 21.9

----------
viability, T/C for assorted molecules
Test system: 922993-354-T-J3-PDC complex spheroids, viability
PROTOCOL_SUMMARY: Anticancer human tumor 922993-354-T-J3-PDC cell line growth inhibition [GQUAD];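 note: spheroids exposed to compounds for seven days; 100% = DMSO vehicle control viability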
ASSAY_SETUP: second compound 0.316 µM; first compound 0.000999 µM; stronger effect = lower value
Give the number; % is assumed, so skip it.

A selection of reference data follows.
* Cn1ncnc1[C@H]1c2n[nH]c(=O)c3cc(F)cc(c23)N[C@@H]1c1ccc(F)cc1 + Cc1[nH]c2ccc(F)cc2c1-c1nc2c3cccnc3c3ncccc3c2[nH]1 | 100
* CC[C@@]1(O)C(=O)OCc2c1cc1n(c2=O)Cc2cc3c(CN(C)C)c(O)ccc3nc2-1 + Cc1cnc(CNC(=O)c2c(=O)c3ccc(N4CCCN(C)CC4)nc3n3c2sc2ccccc23)cn1 | 58.6
* CCc1c2c(nc3ccc(O)cc13)-c1cc3c(c(=O)n1C2)COC(=O)[C@]3(O)CC + Cc1[nH]c2ccc(F)cc2c1-c1nc2c3cccnc3c3ncccc3c2[nH]1 | 119
* Cc1[nH]c2ccccc2c1CCNCc1ccc(/C=C/C(=O)NO)cc1 + Cc1[nH]c2ccc(F)cc2c1-c1nc2c3cccnc3c3ncccc3c2[nH]1 | 96.2

Form field viability, T/C for item Cn1ncnc1[C@H]1c2n[nH]c(=O)c3cc(F)cc(c23)N[C@@H]1c1ccc(F)cc1 + Cc1cnc(CNC(=O)c2c(=O)c3ccc(N4CCCN(C)CC4)nc3n3c2sc2ccccc23)cn1 on 922993-354-T-J3-PDC complex spheroids, viability: 43.5

Form field viability, T/C for item CC[C@@]1(O)C(=O)OCc2c1cc1n(c2=O)Cc2cc3c(CN(C)C)c(O)ccc3nc2-1 + Cc1[nH]c2ccc(F)cc2c1-c1nc2c3cccnc3c3ncccc3c2[nH]1 on 922993-354-T-J3-PDC complex spheroids, viability: 125

Form field viability, T/C for item CCc1c2c(nc3ccc(O)cc13)-c1cc3c(c(=O)n1C2)COC(=O)[C@]3(O)CC + Cc1cnc(CNC(=O)c2c(=O)c3ccc(N4CCCN(C)CC4)nc3n3c2sc2ccccc23)cn1 on 922993-354-T-J3-PDC complex spheroids, viability: 53.9
